# system.name: Phosphodiesterase 3 (Homo sapiens, UniProt Q14432+Q13370)
# assay.details: Inhibition of human platelet c-AMP phosphodiesterase PDE 3
experimental.endpoint: IC50 (nM)

[a] O=C(CCCOc1ccc2[nH]c3nc(O)nc-3cc2c1)N1CCN(CC2CCCCCC2)CC1
[b] O=C(CCCOc1ccc2[nH]c3nc(O)nc-3cc2c1)N1CCN(Cc2ccsc2)CC1
Query string: I'm curious, which of these has a smaller IC50 number: a or b ? The response must carry the label of the picked entry.
Result string: a
(a: 0.2 nM, b: 0.7 nM)

[A] Oc1nc2cc3cc(N4CCN(c5ccccc5)CC4)ccc3[nH]c-2n1
[B] COc1ccc(CN2CCN(C(=O)CCCOc3ccc4[nH]c5nc(O)nc-5cc4c3)CC2)cc1
[C] O=C(CCCOc1ccc2[nH]c3nc(O)nc-3cc2c1)N1CCN(Cc2cccc(C(F)(F)F)c2)CC1
[D] O=C(CCCOc1ccc2[nH]c3nc(O)nc-3cc2c1)N1CCN(c2ccccc2)CC1
[E] O=C1CN2Cc3cc(OCCCC(=O)N4CCN(CC5CCCCC5)CC4)ccc3N=C2N1
Query string: Put the compounds in ascending order of IC50. A ranking is expressed here by listing the labels in the requested order.
Result string: D, B, E, C, A

----------
# system.name: Phosphodiesterase 3 (Homo sapiens, UniProt Q14432+Q13370)
# assay.details: Inhibition of human platelet c-AMP phosphodiesterase PDE 3
experimental.endpoint: IC50 (nM)

O=C(CCCOc1ccc2[nH]c3nc(O)nc-3cc2c1)N1CCN(CCc2ccccc2C(F)(F)F)CC1
0.3
O=C(CCCOc1ccc2[nH]c3nc(O)nc-3cc2c1)NC1CCN(Cc2ccccc2)CC1
0.7
O=C(CCCOc1ccc2[nH]c3nc(O)nc-3cc2c1)NC1CN2CCC1CC2 (stereo not given)
40

[A] O=C(CCCOc1ccc2[nH]c3nc(O)nc-3cc2c1)N1CCN(CC2CCCCC2)CC1
[B] O=C(CCCCCOc1ccc2[nH]c3nc(O)nc-3cc2c1)N1CCN(CC2CCCCC2)CC1
Query string: Given the two records A and B , choose the one whose IC50 value is lower. Selection: enter the item's label.
Result string: A
(A: 0.4 nM, B: 0.6 nM)

These measurements were taken from ChEMBL document CHEMBL1125486.
